# method_summary: clinical
# settings: human, in vivo, po, 400 mg, AUC inf
readout_type: AUC(0-inf) (ng·h/mL)
Answer format: numeric, ng·h/mL implied, no suffix.

Supply measured AUC(0-inf) of O=C(O)Cc1ccc(O)cc1 [4-HPAA, 4-hydroxyphenylacetic acid] in your reply.
21600

---

# method_summary: Pharmacokinetics of tyramine and its metabolite 4-HPAA in plasma and urine of healthy volunteers after oral administration of 400 mg tyramine
# settings: female, human, in vivo, po, 400 mg
readout_type: AUC(0-inf) (µM·h)
Answer format: numeric, µM·h implied, no suffix.

Supply measured AUC(0-inf) of NCCc1ccc(O)cc1 [Tyramine, tyramine] in your reply.
0.19

Reference for the values: paper PMC6831736
